# Assay Name: pH range solubility in biorelevant media
# Format: physicochemical
# Condition Parameters: FEDGAS biorelevant medium, pH 3, fassgf or other biorelevant, thermodynamic from solid, pH 3.0 (FEDGAS); late stage of stomach emptying; read-out: Solubility

Compound: CN1CC[C@@H](c2c(O)cc(O)c3c(=O)cc(-c4ccc(C(F)(F)F)cc4Cl)oc23)[C@@H]1CO.O=C(O)CC(=O)O [Voruciclib Malonate]
solubility / mg/mL: 11.3

* * *

# Assay Name: clinical
# Condition Parameters: human, in vivo

Line Notation: CN1CC[C@@H](c2c(O)cc(O)c3c(=O)cc(-c4ccc(C(F)(F)F)cc4Cl)oc23)[C@@H]1CO
half-life: 120 to 240 h
